# System: adenosine deaminase
# experiment: Adenosine deaminase assay (deamination of nucleosides)
# Format: in vitro ADME
# recorded conditions: 120 min, 50 μM, pH 7.4
measured endpoint: Deamination in 120 min (0.2 units Adenosine Deaminase) (%)
Give just the numeric value; % need not be written.

In [3]: df
Out[3]:
                                   compound  value_measured
0  COc1nc(N)nc2c1ncn2[C@H]1CC(N=[N+]=[N-])[C@@H](CO)O1 (stereo partly shown) [Compound 70]          130.22

INPUT: Returns the measured Deamination in 120 min (0.2 units Adenosine Deaminase) for the input compound. Input: [N-]=[N+]=NC1C[C@H](n2cnc3c(NC4CC4)nc(N)nc32)O[C@@H]1CO (stereo partly shown) [Compound 72]
OUTPUT: 33.40

INPUT: What measured Deamination in 120 min (0.2 units Adenosine Deaminase) goes with [N-]=[N+]=N[C@H]1C[C@H](n2cnc3c(Cl)nc(N)nc32)O[C@@H]1CO [Compound 68] ?
OUTPUT: 240.53

INPUT: Bench note: what Deamination in 120 min (0.2 units Adenosine Deaminase) did C=CCNc1nc(N)nc2c1ncn2[C@H]1CC(N=[N+]=[N-])[C@@H](CO)O1 (stereo partly shown) [Compound 62] show?
OUTPUT: 7.60

Data provenance is patent US8815829B2.
